Target: Calpain-1 catalytic subunit (Sus scrofa, UniProt P35750)
Experiment Summary: Inhibitory activity against porcine calpain I using Suc-Leu-Tyr-AMC fluorogenic substrate
Residues, ends and D or L forms follow the SMILES beside them. *: point of attachment. Cbz = O=C(OCc1ccccc1)*
Readout Kind: IC50 (µM)
Your answer is read as µM, so omit the unit and give the number.

Input: Form: Entry = CC(C)[C@H](NC(=O)OCc1ccccc1)C(=O)N[C@H](C=O)Cc1ccccc1 (Cbz-Val-Phe-aldehyde) | System = Calpain-1 catalytic subunit (Sus scrofa, UniProt P35750) | IC50 = ____
Output: 0.02

Input: Then CCNC(=O)C(=O)[C@H](Cc1ccc(Br)cc1)NC(=O)[C@H](CC(C)C)NC(=O)CCCCC1CCSS1 (stereo not given in full) ?
Output: 0.024

Input: Same lookup for CC(C)C[C@H](NC(=O)CCCCC1CCSS1)C(=O)NC(Cc1ccc(Br)cc1)C(=O)C(=O)O (stereo not given in full) , please.
Output: 0.05

Input: Can you handle CC(=O)N[C@@H](CC(C)C)C(=O)N[C@@H](CC(C)C)C(=O)N[C@H](C=O)CCCNC(=N)N next?
Output: 0.08

Input: Same thing, different compound: CCNC(=O)C(=O)[C@H](Cc1ccccc1)NC(=O)[C@@H](NC(=O)CCCCC1CCSS1)C(C)C (stereo not given in full)
Output: 0.08

Input: Now the same for CC(C)C[C@H](NC(=O)CCCCC1CCSS1)C(=O)NC(Cc1ccc(Br)cc1)C(=O)C(=O)NCCc1ccccn1 (stereo not given in full)
Output: 0.23

Input: Now the same for CCNC(=O)C(=O)[C@H](Cc1ccc(C#N)cc1)NC(=O)[C@@H](NC(=O)CCCCC1CCSS1)C(C)C (stereo not given in full)
Output: 0.12

* * *

Give pIC50 for every item shown.
Target: Calpain-1 catalytic subunit (Sus scrofa)
Sequence (P35750 whole entry): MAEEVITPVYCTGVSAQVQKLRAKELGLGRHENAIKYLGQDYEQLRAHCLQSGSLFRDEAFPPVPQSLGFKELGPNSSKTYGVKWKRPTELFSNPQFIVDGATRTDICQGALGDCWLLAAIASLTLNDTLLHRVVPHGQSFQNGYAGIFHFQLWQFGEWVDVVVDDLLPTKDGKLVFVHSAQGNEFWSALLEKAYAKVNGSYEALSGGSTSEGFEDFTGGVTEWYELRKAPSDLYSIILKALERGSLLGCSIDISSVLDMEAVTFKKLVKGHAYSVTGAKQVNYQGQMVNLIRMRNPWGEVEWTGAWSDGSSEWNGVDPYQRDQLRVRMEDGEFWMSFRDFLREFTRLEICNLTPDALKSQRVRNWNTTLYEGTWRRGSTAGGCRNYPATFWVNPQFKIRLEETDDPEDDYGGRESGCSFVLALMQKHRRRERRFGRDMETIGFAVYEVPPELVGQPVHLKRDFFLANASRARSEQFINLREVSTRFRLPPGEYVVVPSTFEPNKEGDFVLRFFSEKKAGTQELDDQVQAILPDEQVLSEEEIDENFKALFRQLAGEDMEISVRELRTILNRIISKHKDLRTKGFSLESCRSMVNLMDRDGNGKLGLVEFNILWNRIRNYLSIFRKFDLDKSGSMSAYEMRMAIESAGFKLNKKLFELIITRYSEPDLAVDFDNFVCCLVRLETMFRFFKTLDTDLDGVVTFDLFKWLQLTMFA
Experiment Summary: Inhibitory activity against porcine calpain I using Suc-Leu-Tyr-AMC fluorogenic substrate
Please note pIC50 is a logarithmic value: minus log10 of concentration in mol/L. Answer with that number alone.

Input: pIC50 lookup needed for CCNC(=O)C(=O)[C@H](Cc1ccc(OC)cc1)NC(=O)[C@@H](NC(=O)CCCCC1CCSS1)C(C)C (stereo partly drawn) , thanks.
Output: 6.92

Input: Same lookup for CCNC(=O)C(=O)[C@H](Cc1ccc(Cl)cc1)NC(=O)[C@@H](NC(=O)CCCCC1CCCS1)C(C)C (stereo partly drawn) , please.
Output: 7.00

Input: Item: CCNC(=O)C(=O)[C@H](Cc1ccc(Cl)c(Cl)c1)NC(=O)[C@@H](NC(=O)CCCCC1CCSS1)C(C)C (stereo partly drawn)
Output: 7.10

Input: And for CCNC(=O)C(=O)[C@H](Cc1ccc(F)cc1)NC(=O)[C@@H](NC(=O)CCCCC1CCSS1)C(C)C (stereo partly drawn) ?
Output: 7.00

Input: Check CCNC(=O)C(=O)[C@H](Cc1ccc(Cl)cc1)NC(=O)[C@@H](NC(=O)CCCCc1ccccc1)C(C)C too.
Output: 7.22

Input: Can you check CC(C)C[C@H](NC(=O)CCCCC1CCSS1)C(=O)NC(Cc1ccc(Br)cc1)C(=O)C(=O)NC1CCCCC1 (stereo partly drawn) next?
Output: 7.15

Input: Query CCNC(=O)C(=O)[C@@H](Cc1ccc(Br)cc1)NC(=O)[C@H](CC(C)C)NC(=O)CCCCC1CCSS1 (stereo partly drawn) next
Output: 7.41

Input: What do you have for CCNC(=O)C(=O)[C@H](Cc1ccc(Cl)cc1)NC(=O)[C@@H](NC(=O)CCCCC1CCSS1)C(C)C (stereo partly drawn) ?
Output: 7.22

* * *

Experiment Summary: Inhibition of calpain I in C2C12 myoblasts loaded with Suc-Leu-Tyr-AMC
Assay type: functional, Mus musculus
Residues, ends and D or L forms follow the SMILES beside them. *: point of attachment. Cbz = O=C(OCc1ccccc1)*
Readout Kind: IC50 (nM)
Just the number please, in nM, no unit attached.

Input: Can you look up the measured IC50 of CCNC(=O)C(=O)[C@H](Cc1ccc(OC)cc1)NC(=O)[C@@H](NC(=O)CCCCC1CCSS1)C(C)C (stereo partly specified) for me?
Output: 220

Input: Field entry: CCNC(=O)C(=O)[C@H](Cc1ccc(F)c(F)c1)NC(=O)[C@@H](NC(=O)CCCCC1CCSS1)C(C)C (stereo partly specified)
Output: 700

Input: Thanks! And CCNC(=O)C(=O)[C@H](Cc1ccc(F)cc1)NC(=O)[C@@H](NC(=O)CCCCC1CCSS1)C(C)C (stereo partly specified) ?
Output: 2500

Input: Ok, now CCNC(=O)C(=O)[C@H](Cc1ccc(Cl)cc1)NC(=O)[C@@H](NC(=O)CNC(=O)CCCCC1CCSS1)C(C)C (stereo partly specified)
Output: 1000

Input: Also need CCNC(=O)C(=O)[C@H](Cc1ccc(O)cc1)NC(=O)[C@@H](NC(=O)CCCCC1CCSS1)C(C)C (stereo partly specified) , thanks.
Output: 2500

Input: Please do the same for CCNC(=O)C(=O)[C@H](Cc1ccc(Cl)cc1)NC(=O)[C@@H](NC(=O)CCCC1CCCS1)C(C)C (stereo partly specified) as well.
Output: 2000

Input: Request: CCOC(=O)C(=O)C(Cc1ccc(Br)cc1)NC(=O)[C@H](CC(C)C)NC(=O)CCCCC1CCSS1 (stereo partly specified)
Output: 4500

Input: Queued: CCCCc1ccc(C(=O)N[C@H](C(=O)N[C@@H](Cc2ccc(Cl)cc2)C(=O)C(=O)NCC)C(C)C)cc1
Output: 25000

Input: Same for CCNC(=O)C(=O)[C@H](Cc1ccc(Cl)cc1)NC(=O)[C@@H](NC(=O)OCc1ccccc1)C(C)C
Output: 15000

Input: Entry to check: CC(C)C[C@H](NC(=O)CCCCC1CCSS1)C(=O)NC(Cc1ccc(Br)cc1)C(=O)C(=O)O (stereo partly specified)
Output: 5000

Input: Param item: CC(C)[C@H](NC(=O)OCc1ccccc1)C(=O)N[C@H](C=O)Cc1ccccc1 (Cbz-Val-Phe-aldehyde)
Output: 10000

Input: # repeat for CCNC(=O)C(=O)[C@H](CC1CCCCC1)NC(=O)[C@@H](NC(=O)CCCCC1CCSS1)C(C)C (stereo partly specified)
Output: 3000

Input: Do the same for CCNC(=O)C(=O)[C@H](Cc1ccc(Cl)cc1)NC(=O)[C@@H](NC(=O)CCCCC1CCS[S+]1[O-])C(C)C (stereo partly specified) please
Output: 6000

Input: # iterate: CCNC(=O)C(=O)[C@H](Cc1ccccc1)NC(=O)[C@@H](NC(=O)CCCCC1CCSS1)C(C)C (stereo partly specified)
Output: 3500

Input: // same read-out, input: CC(C)C[C@H](NC(=O)CCCCC1CCSS1)C(=O)NC(Cc1ccc(Br)cc1)C(=O)C(=O)NCCc1ccccn1 (stereo partly specified)
Output: 800

All values here come from ChEMBL document CHEMBL1141207.
